Recorded values, source the NIST ThermoML archive (doi:10.1021/je900550v).

reported-conditions: 288.15 K; 101.33 kPa; Liquid
metric-name: viscosity (mPa·s)

CC(C)C(=O)[O-].C[NH2+]CCO [2-hydroxy-N-methylethanaminium isobutyrate]	301.35
CCCCC(=O)[O-].C[NH2+]CCO [2-hydroxy-N-methylethanaminium pentanoate]	450.93
CC(=O)[O-].C[NH2+]CCO [N-methyl-2-hydroxyethylammonium acetate]	211.24

1 = CCC(=O)[O-].C[NH2+]CCO [2-hydroxy-N-methylethanaminium propionate]
2 = C[NH2+]CCO.O=C[O-] [2-hydroxy-N-methylethanaminium formate]
[in] Higher viscosity: 1 or 2 ? Let me know the label of the one you choose.
[out] 1
(1: 432.13 mPa·s, 2: 34.2 mPa·s)
